molecules and their reported GI50
# Test system: U-251
# experimental_details: NCI tumour cell line growth inhibition, 48 h
The source made the active and inactive calls. Cut-off read from the data, not from the text of the source: active = GI50 up to about 1.1 µM and inactive = higher.

molecule | GI50
O=c1c2ccccc2nc(-c2cccc(Cl)c2)n1NC1OC(CO)C(O)C(O)C1O (stereo unspecified) | > 100 µM (inactive)
Oc1c(O)c(Cc2ccccc2)c(Cc2ccccc2)c(Cc2ccccc2)c1Cc1ccccc1 | > 10 µM (inactive)
CCN(CC)c1ccc(/C=C/c2ccnc3ccccc23)cc1 | > 100 µM (inactive)
COC(OC)(c1ccccc1)C(Br)Br | > 100 µM (inactive)
O=C(N/N=C/c1cc(Cl)cc(Cl)c1O)c1ccncc1 | 92.3 µM (inactive)
O=C1NN=C(O)C2C3c4ccccc4C(c4ccccc43)C12 (stereo unspecified) | > 100 µM (inactive)

* * *

# System: SF-295
# experimental_details: NCI tumour cell line growth inhibition, 48 h
Activity calls are given as the source filed them. Cut-off read from the data, not from the text of the source: active = GI50 up to about 1.1 µM and inactive = higher. *1 amine or outer side, *2 acyl side, *3 side chain or, on linkers, in order; H or OH if unused. Where a SMILES comes first, the peptide text is derived from it. [ ]: non-standard residue; d: D form. The star is where a group is joined. ξ: configuration not given here. X26 = O=C([C@H]1CCC[C@H]1N[*:1])[*:2]; ξW = NC(Cc1c[nH]c2ccccc12)C(=O)O; ξF = NC(Cc1ccccc1)C(=O)O; Boc = CC(C)(C)OC(=O)*; ξK = NCCCCC(N)C(=O)O; ξT = CC(O)C(N)C(=O)O; tBu = CC(C)(C)*

compound | GI50
O=c1[nH]c(-c2ccc([N+](=O)[O-])cc2)nc2ccc(Cl)cc12 | > 100 µM (inactive)
O=C(O)c1cnc2cc(OCc3ccccc3)ccc2c1O | 19.3 µM (inactive)
c1ccc2c(c1)/C(=N\NC1=NCCN1)c1nc3ccccc3nc1-2 | 2.45 µM (inactive)
COC(=O)/C(C)=C/[N+](=O)[O-] | 16.6 µM (inactive)
CC(OC(C)(C)C)C1NC(=O)C(CCCCNC(=O)OC(C)(C)C)NC(=O)C(Cc2c[nH]c3ccccc23)NC(=O)C(Cc2ccccc2)NC(=O)[C@H]2CCC[C@H]2NC(=O)C(Cc2ccccc2)NC1=O (stereo not given in full) (cyclo([X26][ξF][ξW][ξK](Boc)[ξT](tBu)[ξF])) | 9.79 µM (inactive)
Brc1ccc2c([C@H]3CN[C@@H](c4c[nH]c5cc(Br)ccc45)CN3)c[nH]c2c1 | 7.1 µM (inactive)
O=C1CC2CC=C[C@H]3c4cc5c(cc4C(=O)N1C23)OCO5 (stereo not given in full) | > 50 µM (inactive)
[N-]=[N+]=NC[C@H]1OCO[C@H](CN=[N+]=[N-])[C@H]2OCCOCCOc3ccccc3OCCOCCO[C@@H]21 | > 100 µM (inactive)
NCCN/C(=N\c1ccccc1)Nc1ccccc1 | > 100 µM (inactive)
SCCSCCCSCCS | 76.9 µM (inactive)
CCOC(=O)N/N=C(\Cc1ccccc1)OCC | > 100 µM (inactive)
CC(C)(C)c1cc(CC2C(=O)c3ccccc3C2=O)cc(C(C)(C)C)c1O | 3.24 µM (inactive)
CN1CCOC(c2ccccc2)O1 (stereo not given) | > 100 µM (inactive)
O=C(O)CNCP(=O)(O)O [GLYPHOSATE] | > 100 µM (inactive)
O=C(C1OC1c1ccc([N+](=O)[O-])cc1)C12CC3CC(CC(C3)C1)C2 (stereo not given) | 12.3 µM (inactive)
Nc1nc(N)c(-c2ccccc2)c(C(=O)Nc2ccc(Cl)c(Cl)c2)n1 | > 100 µM (inactive)
CCOC(=O)[C@@]12C[C@](/C=C/OC)(O[Si](C)(C)C)[C@@]13c1cc(OC)c(OC)cc1CCN3C(=O)C2=O | > 100 µM (inactive)
C[Si](C)(C)c1ccc(CC2(Cc3ccc([Si](C)(C)C)cc3)CCNC2)cc1 | 2.52 µM (inactive)
O=C(Nc1ccn(CCOC(=O)c2ccccc2)c(=O)n1)c1ccccc1 | > 100 µM (inactive)
O=C1c2ccccc2-c2nnc(-c3ccc(Cl)cc3)cc21 | > 10 µM (inactive)
